Experiment: DRUGMATRIX: Glutamate, NMDA, Phencyclidine radioligand binding (ligand: [3H] TCP)
Format: cell membranes, Rattus norvegicus, Wistar, Cerebral cortex, Membrane
Details: Not Active = under 50% inhibition at 10 µM
Value type: IC50

Below are worked cases with known answers.
Molecule | Value type | Observed value
COC(=O)[C@H]1[C@H]2C[C@@H]3c4[nH]c5cc(OC)ccc5c4CCN3C[C@H]2C[C@@H](OC(=O)c2cc(OC)c(OC)c(OC)c2)[C@@H]1OC | IC50 | Not Active
CC(=O)OCC(=O)[C@@]1(O)CC[C@H]2[C@@H]3CCC4=CC(=O)CC[C@]4(C)[C@@]3(F)[C@@H](O)C[C@@]21C [FLUDROCORTISONE ACETATE] | IC50 | Not Active
CN1CCN(CCCN2c3ccccc3Sc3ccc(C(F)(F)F)cc32)CC1 | IC50 | Not Active
CN(C)C(=N)NC(=N)N | IC50 | Not Active
CS(=O)(=O)Nc1ccc([N+](=O)[O-])cc1Oc1ccccc1 [NIMESULIDE] | IC50 | Not Active

Challenge: Given O=C(O)COc1ccc(C(=O)c2cccs2)c(Cl)c1Cl , respond with its IC50.
Response given: Not Active

Challenge: Given C[C@@](Cc1ccc(O)c(O)c1)(NN)C(=O)O.O , respond with its IC50.
Response given: Not Active

Challenge: Given CN1C(=O)CN=C(c2ccccc2)c2cc([N+](=O)[O-])ccc21 , respond with its IC50.
Response given: Not Active

Challenge: Given COC(=O)Nc1nc2cc(C(=O)c3ccc(F)cc3)ccc2[nH]1 , respond with its IC50.
Response given: Not Active

Challenge: Given C[C@]12C=CC(=O)C=C1CC[C@H]1[C@@H]3C[C@@H](O)[C@](O)(C(=O)CO)[C@@]3(C)C[C@H](O)[C@@]12F , respond with its IC50.
Response given: Not Active

Challenge: Given Nc1ccc(S(=O)(=O)NC(=O)c2ccccc2)cc1 [SULFABENZAMIDE] , respond with its IC50.
Response given: Not Active

Challenge: Given CN(C)CCC=C1c2ccccc2CCc2ccccc21 , respond with its IC50.
Response given: Not Active

Challenge: Given NC(=O)c1cccnc1 [NIACINAMIDE] , respond with its IC50.
Response given: Not Active

Challenge: Given C[C@]12CC[C@H]3[C@@H](CCC4=CC(=O)CC[C@@H]43)[C@@H]1CC[C@@H]2O , respond with its IC50.
Response given: Not Active
